# STUDY TARGET: Serotonin 2 receptors; 5-HT2a & 5-HT2c (Homo sapiens) (UniProt P28223+P28335)
# Sequence (P28223 whole entry, looked up): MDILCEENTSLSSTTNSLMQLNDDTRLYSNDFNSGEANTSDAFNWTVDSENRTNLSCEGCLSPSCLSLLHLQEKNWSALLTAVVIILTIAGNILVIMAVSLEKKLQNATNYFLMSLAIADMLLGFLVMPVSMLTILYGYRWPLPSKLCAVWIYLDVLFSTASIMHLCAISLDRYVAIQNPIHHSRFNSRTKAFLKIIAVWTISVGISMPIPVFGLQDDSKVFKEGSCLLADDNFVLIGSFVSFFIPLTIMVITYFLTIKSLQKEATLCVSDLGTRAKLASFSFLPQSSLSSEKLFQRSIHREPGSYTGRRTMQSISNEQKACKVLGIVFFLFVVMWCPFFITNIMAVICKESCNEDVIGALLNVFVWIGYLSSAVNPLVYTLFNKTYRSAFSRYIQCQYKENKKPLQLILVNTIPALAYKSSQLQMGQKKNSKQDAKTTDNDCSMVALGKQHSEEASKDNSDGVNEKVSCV
# Sequence (P28335 whole entry, looked up): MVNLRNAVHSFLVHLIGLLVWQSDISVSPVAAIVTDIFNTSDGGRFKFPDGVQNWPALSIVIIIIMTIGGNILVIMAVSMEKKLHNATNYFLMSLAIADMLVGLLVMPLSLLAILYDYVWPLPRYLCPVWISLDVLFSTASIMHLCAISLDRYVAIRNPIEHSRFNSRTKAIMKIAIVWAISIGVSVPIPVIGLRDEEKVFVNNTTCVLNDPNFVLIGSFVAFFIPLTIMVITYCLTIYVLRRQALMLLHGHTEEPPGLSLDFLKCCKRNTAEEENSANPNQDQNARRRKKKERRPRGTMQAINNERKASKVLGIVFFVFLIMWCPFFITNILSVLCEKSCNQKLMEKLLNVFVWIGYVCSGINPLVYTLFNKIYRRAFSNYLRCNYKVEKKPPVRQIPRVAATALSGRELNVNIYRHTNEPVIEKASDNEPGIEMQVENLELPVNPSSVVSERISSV
# ASSAY NOTES: Selectivity for human 5HT2C receptor over human 5HT2A receptor
TEST READOUT: Ratio Ki
I'd appreciate a reply containing only the number, no unit.

The recorded Ratio Ki for `CCc1cc2c(ccc3cnn(C[C@H](C)N)c32)o1` is 15

The recorded Ratio Ki for `N#Cc1ccc2c(c1Cl)CCNCC2` is 6

The recorded Ratio Ki for `Fc1ccc2c(c1Cl)CCNCC2` is 3

---

So I've got a bunch of compounds here, and I need their Ratio Ki values.
# Organism: Homo sapiens
# ASSAY NOTES: Selectivity for human 5HT2C receptor over human 5HT2B receptor
I'd appreciate a reply containing only the number, no unit.

The recorded Ratio Ki for `Fc1ccc2c(c1Cl)CCNCC2` is 10

The recorded Ratio Ki for `O=[N+]([O-])c1ccc2c(c1Cl)CCNCC2` is 21

The recorded Ratio Ki for `Clc1ccc2c(c1Cl)CCNCC2` is 11

The recorded Ratio Ki for `c1cc2ccc3c(c2o1)CCNCC3` is 1
